Assay: Pharmacokinetic test in rats, intravenous
Assay type: in vivo
Details: male, SD, rat, plasma, intravenous 1 mg/kg, read-out: half life (T½) (converted)
Binning of half-life into classes: LOW = under 90 min, MID = from 90 min up to 200 min, HIGH = 200 min and over

Consider the following illustrative entries.
compound="FC(F)(F)Oc1cccc(CNCCC2(c3ccccn3)CCOC3(CCCC3)C2)c1 (stereo not drawn)" label_value=LOW
compound="Cc1ccc(CNCCC2(c3ccccn3)CCOC3(CCCC3)C2)cc1C (stereo not drawn)" label_value=LOW
compound="FC(F)Oc1ccccc1CNCCC1(c2ccccn2)CCOC2(CCCC2)C1 (stereo not drawn)" label_value=HIGH
compound="Clc1ccsc1CNCCC1(c2ccccn2)CCOC2(CCCC2)C1 (stereo not drawn)" label_value=HIGH
compound="FC(F)Oc1ccsc1CNCCC1(c2ccccn2)CCOC2(CCCC2)C1 (stereo not drawn)" label_value=HIGH

Attention now turns to another entry.
Exam item: assign Fc1ccc(C2(CCNCc3ccccc3OC(F)(F)F)CCOC3(CCCC3)C2)nc1 (stereo not drawn) to the correct category.
MID

* * *

Molecular target: μ opioid receptor (MOR) (Homo sapiens, UniProt P35372)
Sequence (P35372 whole entry, species assumed): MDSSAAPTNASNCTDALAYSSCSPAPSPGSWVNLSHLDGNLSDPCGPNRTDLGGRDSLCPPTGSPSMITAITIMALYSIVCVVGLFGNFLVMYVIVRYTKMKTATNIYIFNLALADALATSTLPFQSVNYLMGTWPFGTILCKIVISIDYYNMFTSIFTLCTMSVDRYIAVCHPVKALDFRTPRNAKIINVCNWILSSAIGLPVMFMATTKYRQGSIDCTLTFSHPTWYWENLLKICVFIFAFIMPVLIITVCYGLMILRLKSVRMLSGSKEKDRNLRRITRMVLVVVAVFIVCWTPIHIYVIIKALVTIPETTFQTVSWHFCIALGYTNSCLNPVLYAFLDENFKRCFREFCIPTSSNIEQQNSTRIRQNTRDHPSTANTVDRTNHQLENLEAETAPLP
Experiment: cell-based
Details: HEK293 stably expressing μ opioid receptor, FLIPR calcium
Readings of EC50 for the listed compounds
# output: bare number, implied unit nM

Study these solved cases before continuing.
compound="Cc1ccc(CNCCC2(c3ccccn3)CCOC3(CCCC3)C2)c(C)c1 (centres unmarked) [Example H08]" number=3.42
compound="Fc1cnc(C2(CCNCc3ccccc3OC(F)(F)F)CCOC3(CCCC3)C2)c(Cl)c1 (centres unmarked) [Example H09]" number=4.12
compound="Cc1cc(F)cnc1C1(CCNCc2ccccc2OC(F)(F)F)CCOC2(CCCC2)C1 (centres unmarked) [Example H10]" number=2.15
compound="COc1ccsc1CNC(C)CC1(c2ccccn2)CCOC2(CCCC2)C1 (centres unmarked) [Example H27]" number=4.01

Moving on to the next compound.
Fill in the recorded EC50 for this compound, with μ opioid receptor (MOR) (Homo sapiens, UniProt P35372) as test system: c1ccc(C2(CCN3CCc4ccsc4C3)CCOC3(CCCC3)C2)nc1 (centres unmarked) [Example H23]
4.08

* * *

System: rat surgical incision injury model
Assay: Rat surgical incision injury model, von Frey paw withdrawal threshold
Format: in vivo, SD rats
Conditions: rats, intravenous 0.3 mg/kg, 60 min
Reported Property: 50% PWT, 60 min after administration (g)
# output: bare number, implied unit g

Study these solved cases before continuing.
compound="FC(F)(F)Oc1ccc(Cl)cc1CNCCC1(c2ccccn2)CCOC2(CCCC2)C1 (stereo not shown)" experimental_target="rat surgical incision injury model" readout_units=g number=7.91
compound="CNc1ccsc1C(=O)NCCC1(c2ccccn2)CCOC2(CCCC2)C1 (stereo not shown)" experimental_target="rat surgical incision injury model" readout_units=g number=7.29
compound="Cc1cc(F)cnc1C1(CCNCc2ccccc2OC(F)(F)F)CCOC2(CCCC2)C1 (stereo not shown)" experimental_target="rat surgical incision injury model" readout_units=g number=7.59

Quick one: 50% PWT, 60 min after administration of COc1ccsc1CNCC[C@@]1(c2ccccn2)CCOC2(CCCC2)C1 [TRV130, reference compound] ?
5.71

* * *

Molecular target: β-arrestin signaling pathway of MOR (Homo sapiens, UniProt P35372)
Construct: host or cells: HEK293 (PathHunter cell line)
Sequence (P35372 whole entry): as the sequence (P35372 whole entry, species assumed) above
Assay: cell-based
Settings: PathHunter HEK293 cells, relative to endorphin MAX control
Readings of Emax for the listed compounds
# output: bare number, implied unit %

Study these solved cases before continuing.
compound="Fc1cnc(C2(CCNCc3ccccc3OC(F)(F)F)CCOC3(CCCC3)C2)c(Cl)c1 (stereo not drawn) [Example H09]" reported_property=Emax number=3.28
compound="COc1ccsc1CNC(C)CC1(c2ccccn2)CCOC2(CCCC2)C1 (stereo not drawn) [Example H27]" reported_property=Emax number=3.32
compound="N#Cc1cccc(CNCCC2(c3ccccn3)CCOC3(CCCC3)C2)c1OC(F)(F)F (stereo not drawn) [Example H13]" reported_property=Emax number=3.41
compound="Cc1ccc(CNCCC2(c3ccccn3)CCOC3(CCCC3)C2)c(OC(F)(F)F)c1 (stereo not drawn) [Example H12]" reported_property=Emax number=32.2
compound="FC(F)(F)Oc1ccc(Cl)cc1CNCCC1(c2ccccn2)CCOC2(CCCC2)C1 (stereo not drawn) [Example H17]" reported_property=Emax number=1.78
compound="Fc1ccc(C2(CCNCc3sccc3OC(F)F)CCOC3(CCCC3)C2)nc1 (stereo not drawn) [Example H33]" reported_property=Emax number=8.69

Fill in the recorded Emax for this compound, with β-arrestin signaling pathway of MOR (Homo sapiens, UniProt P35372) as test system: COc1ccsc1CNCC(C)C1(c2ccccn2)CCOC2(CCCC2)C1 (stereo not drawn) [Example H26]
22.6

For Cc1ccc(CNCCC2(c3ccccn3)CCOC3(CCCC3)C2)cc1C (stereo not drawn) [Example H07] then?
1.55

For FC(F)(F)Oc1c(Br)cccc1CNCCC1(c2ccccn2)CCOC2(CCCC2)C1 (stereo not drawn) [Example H28] then?
6.26

For Fc1ccc(C2(CCNCc3sccc3Cl)CCOC3(CCCC3)C2)nc1 (stereo not drawn) [Example H30] then?
2.91

For COc1[nH]ncc1CNCCC1(c2ccccn2)CCOC2(CCCC2)C1 (stereo not drawn) [Example H25] then?
3.2

For CNc1ccsc1C(=O)NCCC1(c2ccccn2)CCOC2(CCCC2)C1 (stereo not drawn) [Example H24] then?
2.76

For Cc1c(Cl)cccc1CNCCC1(c2ccccn2)CCOC2(CCCC2)C1 (stereo not drawn) [Example H04] then?
6.12

For COc1ccc2c(c1)CN(CCC1(c3ccccn3)CCOC3(CCCC3)C1)CC2 (stereo not drawn) [Example H20] then?
2.12

For Cc1c(Cl)cccc1CNCCC1(c2ccc(F)cn2)CCOC2(CCCC2)C1 (stereo not drawn) [Example H32] then?
11.7

For Fc1ccc(C2(CCNCc3ccccc3OC(F)F)CCOC3(CCCC3)C2)nc1 (stereo not drawn) [Example H29] then?
7.07

For Fc1ccc(C2(CCNCc3ccccc3OC(F)(F)F)CCOC3(CCCC3)C2)nc1 (stereo not drawn) [Example H21] then?
0.08

For Cc1ccc(CNCCC2(c3ccc(F)cn3)CCOC3(CCCC3)C2)cc1C (stereo not drawn) [Example H31] then?
5.06
